Origin of measurements: ChEMBL document CHEMBL3046877

tested on: A549; test: Anticancer activity against Homo sapiens (human) A549 cells assessed as decrease in cell growth after 3 days by MTT assay; type: functional, cell-based; conditions: A549, 72 h
pIC50: −log10 of the molar value.
Assign pIC50 to each entry below.

Problem: For the compound `COc1ccc(-c2c3c(c(O)c4cc(OC)c(OC)cc24)COC3=O)cc1OC` , report pIC50.
Solution: < 4.00

Problem: Annotate the compound `COc1cc2c(O)c3c(c(-c4cc(OC)c(OC)c(OC)c4)c2cc1OC)C(=O)OC3` with its measured pIC50.
Solution: 4.01

Problem: Supply recorded pIC50 for `COc1cc2c(O)c3c(c(-c4ccc(C)cc4)c2cc1OC)C(=O)OC3` here.
Solution: < 4.00

Problem: Quote pIC50 reported for `COc1cc2c(O)c3c(c(-c4ccccc4)c2cc1OC)C(=O)OC3` please.
Solution: < 4.00

Problem: Look up and state reported pIC50 for `COc1cccc(-c2c3c(c(O)c4cc(OC)c(OC)cc24)COC3=O)c1`
Solution: < 4.00

----------
tested on: HCT-116; assay: Anticancer activity against Homo sapiens (human) HCT116 cells assessed as decrease in cell growth after 3 days by MTT assay; type: functional, cell-based; settings: HCT-116, 72 h
pIC50: −log10 of the molar value.
value kind: pIC50

Problem: State pIC50 (HCT-116) of `COc1ccc(OC)c(-c2c3c(c(O)c4cc(OC)c(OC)cc24)COC3=O)c1` .
Solution: < 4.00

Problem: // output pIC50; input `COc1cc(OC)cc(-c2c3c(c(O)c4cc(OC)c(OC)cc24)COC3=O)c1` ; system HCT-116
Solution: 4.53

Problem: Fetch value of pIC50 on HCT-116 for `COc1cc2c(O)c3c(c(-c4ccccc4OC)c2cc1OC)C(=O)OC3` .
Solution: < 4.00

Problem: Report value: pIC50, system: HCT-116, molecule: `COc1cc2c(O)c3c(c(-c4cc(OC)c(OC)c(OC)c4)c2cc1OC)C(=O)OC3`
Solution: < 4.00

Problem: Given `COc1ccc(-c2c3c(c(O)c4cc(OC)c(OC)cc24)COC3=O)cc1OC` , report its pIC50 on HCT-116.
Solution: < 4.00

Problem: Name the value of pIC50 reported for `COc1ccc(-c2c3c(c(O)c4cc(OC)c(OC)cc24)COC3=O)cc1` when tested on HCT-116.
Solution: < 4.00

Problem: Consider the molecule `COc1cccc(-c2c3c(c(O)c4cc(OC)c(OC)cc24)COC3=O)c1` tested on HCT-116; state its pIC50.
Solution: 4.05

Problem: Under HCT-116: report pIC50 of `COc1cc2c(O)c3c(c(-c4ccccc4)c2cc1OC)C(=O)OC3` .
Solution: < 4.00

Problem: Answer briefly: pIC50 recorded on HCT-116 for `COc1cc2c(O)c3c(c(-c4ccc(C)cc4)c2cc1OC)C(=O)OC3`
Solution: < 4.00

Problem: // fetch pIC50 for `COc1cc2c(O)c3c(c(-c4ccc5c(c4)OCO5)c2cc1OC)C(=O)OC3` ; system: HCT-116
Solution: 4.31
